- TARGET_ENTITY: T1, ΔNp63β (Homo sapiens, UniProt Q9H3D4-4 1-461)
- T1 sequence: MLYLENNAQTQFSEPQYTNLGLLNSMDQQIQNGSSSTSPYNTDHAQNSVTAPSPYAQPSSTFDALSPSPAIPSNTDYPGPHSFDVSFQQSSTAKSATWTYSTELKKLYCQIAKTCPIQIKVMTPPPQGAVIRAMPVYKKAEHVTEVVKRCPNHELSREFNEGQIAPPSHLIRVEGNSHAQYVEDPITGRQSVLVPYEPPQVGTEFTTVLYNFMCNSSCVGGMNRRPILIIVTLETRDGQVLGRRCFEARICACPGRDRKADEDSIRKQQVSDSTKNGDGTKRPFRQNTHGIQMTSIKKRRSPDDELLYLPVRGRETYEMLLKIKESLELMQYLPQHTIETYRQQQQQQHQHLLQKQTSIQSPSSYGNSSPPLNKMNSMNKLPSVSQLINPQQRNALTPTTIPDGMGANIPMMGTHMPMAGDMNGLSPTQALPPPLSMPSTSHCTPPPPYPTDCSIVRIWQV
- EXPERIMENT_DESCRIPTION: anisotropy competition; 25 mM NaPi, 225 mM NaCl, 10% v/v glycerol, 5 mM DTT, 0.2 mg/mL BSA, 22°C; 20 nM labelled DNA; pH not stated for the binding assay
- PROTOCOL_CONDITIONS: protein: recombinant; tags: N-terminal 6xHis-lipoyl-TEV tag, cleaved; chain copies: 4
ENDPOINT_NAME: binding signal

Would you mind telling me what binding signal value was observed for G2C (dsDNA) DNA 1: CGCGCACATGTCCGGACATGTCCCGC DNA 2: GCGGGACATGTCCGGACATGTGCGCG ?
0.36 ΔlogKd vs ref

Would you mind telling me what binding signal value was observed for A5C (dsDNA) DNA 1: CGCGGACCTGTCCGGACATGTCCCGC DNA 2: GCGGGACATGTCCGGACAGGTCCGCG ?
0.57 ΔlogKd vs ref

Would you mind telling me what binding signal value was observed for G7C (dsDNA) DNA 1: CGCGGACATCTCCGGACATGTCCCGC DNA 2: GCGGGACATGTCCGGAGATGTCCGCG ?
1.45 ΔlogKd vs ref

Would you mind telling me what binding signal value was observed for T6C (dsDNA) DNA 1: CGCGGACACGTCCGGACATGTCCCGC DNA 2: GCGGGACATGTCCGGACGTGTCCGCG ?
0.57 ΔlogKd vs ref
